Conditions: in acetone, 295.65 K
recorded_metric: solubility (mole fraction)

>>> df
                     smiles_text             recorded_metric  test_result
0  O=[N+]([O-])c1ccc(O)c2ncccc12  solubility (mole fraction)      0.00668

* * *

Conditions: in acetic acid, 300.65 K
recorded_metric: solubility (mole fraction)

                     smiles_text  test_result
0  O=[N+]([O-])c1ccc(O)c2ncccc12      0.00449

* * *

Conditions: in acetic acid, 308.15 K
recorded_metric: solubility (mole fraction)

                     smiles_text             recorded_metric  test_result
0  O=[N+]([O-])c1ccc(O)c2ncccc12  solubility (mole fraction)      0.00559

* * *

Conditions: in isopropanol, 308.15 K
recorded_metric: solubility (mole fraction)

>>> print(df.to_string())
                     smiles_text             recorded_metric  test_result
0  O=[N+]([O-])c1ccc(O)c2ncccc12  solubility (mole fraction)      0.00154

* * *

Details: in acetone, 290.65 K
recorded_metric: solubility (mole fraction)

                     smiles_text  test_result
0  O=[N+]([O-])c1ccc(O)c2ncccc12       0.0058

* * *

Conditions: in n-butanol, 303.15 K
recorded_metric: solubility (mole fraction)

>>> df
                     smiles_text             recorded_metric  test_result
0  O=[N+]([O-])c1ccc(O)c2ncccc12  solubility (mole fraction)      0.00153

* * *

Details: in acetonitrile, 313.15 K
recorded_metric: solubility (mole fraction)

>>> df
                     smiles_text  test_result
0  O=[N+]([O-])c1ccc(O)c2ncccc12      0.00403

* * *

Settings: in ethanol, 305.65 K
recorded_metric: solubility (mole fraction)

In [3]: df
Out[3]:
                     smiles_text  test_result
0  O=[N+]([O-])c1ccc(O)c2ncccc12      0.00152

* * *

Conditions: in ethanol, 308.15 K
recorded_metric: solubility (mole fraction)

>>> df
                     smiles_text  test_result
0  O=[N+]([O-])c1ccc(O)c2ncccc12      0.00166

* * *

Settings: in acetone, 285.65 K
recorded_metric: solubility (mole fraction)

In [3]: df
Out[3]:
                     smiles_text  test_result
0  O=[N+]([O-])c1ccc(O)c2ncccc12      0.00498

* * *

Details: in ethanol, 295.65 K
recorded_metric: solubility (mole fraction)

>>> print(df.to_string())
                     smiles_text             recorded_metric  test_result
0  O=[N+]([O-])c1ccc(O)c2ncccc12  solubility (mole fraction)      0.00108

* * *

Conditions: in isopropanol, 278.15 K
recorded_metric: solubility (mole fraction)

>>> df
                     smiles_text  test_result
0  O=[N+]([O-])c1ccc(O)c2ncccc12       0.0005

* * *

Details: in methanol, 298.15 K
recorded_metric: solubility (mole fraction)

>>> print(df.to_string())
                     smiles_text             recorded_metric  test_result
0  O=[N+]([O-])c1ccc(O)c2ncccc12  solubility (mole fraction)     0.000904
